targetUnderTest: T1, cynomolgus PD-L1, his tagged (cPD-L1-his) (cynomolgus (Macaca fascicularis), UniProt G7PSE7 19-238)
T1 construct: also called cyPD-L1-His; Cyno PD-L1
T1 sequence (G7PSE7 entry or part of it limits assumed, form in doubt): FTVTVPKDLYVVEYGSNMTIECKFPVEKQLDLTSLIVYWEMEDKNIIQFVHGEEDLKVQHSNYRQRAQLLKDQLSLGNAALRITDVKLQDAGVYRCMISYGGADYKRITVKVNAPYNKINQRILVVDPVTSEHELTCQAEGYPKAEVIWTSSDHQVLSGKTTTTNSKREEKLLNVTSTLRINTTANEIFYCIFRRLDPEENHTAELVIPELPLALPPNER
testMethodNotes: BLI (ForteBio Octet), cPD-L1-his
measureName: pKd
Scale: negative log10 of molar concentration, which is what pKd denotes.

Sample answers from the record:
Could you share which pKd value was measured for h769-tm2 (humanized 769-hIgG1 variant) (antibody, V domains shown) VH: EVQLVQSGAEVKKPGATVKISCKVSGFNIKDTYMHWVQQAPGKGLEWMGLIDPANDNTIYAEKFQGRVTITADTSTDTAYMELSSLRSEDTAVYYCAREGYGGSYGEGYWGQGTLVTVSS VL: EIVMTQSPPTLSLSPGERVTLSCRASQSVSNDLSWYQQKPGQAPRLLIYYASIRFTGIPARFSGSGYGTDFTLTISSLQPEDFAVYYCQQDYNSPWTFGQGTKVEIK ?
8.52

Next: 769-hIgG1 (chimeric PAL769) (antibody, V domains shown) VH: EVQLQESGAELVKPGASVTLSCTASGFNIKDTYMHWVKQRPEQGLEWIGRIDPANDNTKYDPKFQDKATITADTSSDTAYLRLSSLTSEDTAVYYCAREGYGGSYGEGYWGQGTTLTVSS VL: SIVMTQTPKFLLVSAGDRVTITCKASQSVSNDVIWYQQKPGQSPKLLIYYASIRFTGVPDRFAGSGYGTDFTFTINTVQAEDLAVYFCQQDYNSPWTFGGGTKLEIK
8.53

Next up: h769-tm3 (humanized 769-hIgG1 variant) (antibody, V domains shown) VH: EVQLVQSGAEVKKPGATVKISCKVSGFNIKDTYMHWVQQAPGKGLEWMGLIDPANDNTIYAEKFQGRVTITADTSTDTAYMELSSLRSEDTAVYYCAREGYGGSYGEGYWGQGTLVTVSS VL: EIVMTQSPPTLSLSPGERVTLSCRASQSVSNDLSWYQQKPGQAPRLLIYYASIRFTGIPARFSGSGSGTDFTLTISSLQPEDFAVYFCQQDYNSPWTFGQGTKVEIK
8.51

Now consider the entry below.
May I ask what pKd has been recorded for h769-IF3 (humanized 769-hIgG1 variant) (antibody, V domains shown) VH: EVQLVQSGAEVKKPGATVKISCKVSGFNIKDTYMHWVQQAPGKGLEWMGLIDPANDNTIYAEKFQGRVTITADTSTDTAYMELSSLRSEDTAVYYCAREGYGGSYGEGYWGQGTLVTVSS VL: EIVMTQSPPTLSLSPGERVTLSCRASQSVSNDLSWYQQKPGQAPRLLIYYASIRFTGIPARFSGSGSGTDFTLTISSLQPEDFAVYYCQQDYNSPWTFGQGTKVEIK ?
8.53
